test system: Meloidogyne incognita; test: Meloidogyne incognita test; assay type: in vivo; settings: 20 ppm; eggs and larvae, salad seeds in sand; after 14 days

smiles code | nematicidal activity (gall formation), %
O=C(Nc1nc(-c2c(F)cccc2F)ns1)c1ccccc1C(F)F | 70
O=C(Nc1nc(-c2ccccc2C(F)(F)F)ns1)c1ncccc1C(F)(F)F | 90
O=C(Nc1nc(-c2c(F)cccc2F)ns1)c1cccnc1C(F)(F)F | 100
O=C(Nc1nc(-c2c(F)cccc2F)ns1)c1ccccc1Br | 90
O=C(Nc1nc(-c2ccccc2C(F)(F)F)ns1)c1ccccc1Br | 90
O=C(Nc1nc(-c2c(F)cccc2F)ns1)c1cccnc1Cl | 100
CCc1ncccc1C(=O)Nc1nc(-c2ccccc2Cl)ns1 | 90
O=C(Nc1nc(-c2c(F)cccc2F)ns1)c1ncccc1C(F)(F)F | 90
O=C(Nc1nc(-c2c(F)cccc2F)ns1)c1ccccc1[N+](=O)[O-] | 100
